TARGET_OR_TEST_SYSTEM: Dipeptidyl peptidase 4 (Homo sapiens, UniProt P27487)
Sequence (P27487 whole entry, looked up): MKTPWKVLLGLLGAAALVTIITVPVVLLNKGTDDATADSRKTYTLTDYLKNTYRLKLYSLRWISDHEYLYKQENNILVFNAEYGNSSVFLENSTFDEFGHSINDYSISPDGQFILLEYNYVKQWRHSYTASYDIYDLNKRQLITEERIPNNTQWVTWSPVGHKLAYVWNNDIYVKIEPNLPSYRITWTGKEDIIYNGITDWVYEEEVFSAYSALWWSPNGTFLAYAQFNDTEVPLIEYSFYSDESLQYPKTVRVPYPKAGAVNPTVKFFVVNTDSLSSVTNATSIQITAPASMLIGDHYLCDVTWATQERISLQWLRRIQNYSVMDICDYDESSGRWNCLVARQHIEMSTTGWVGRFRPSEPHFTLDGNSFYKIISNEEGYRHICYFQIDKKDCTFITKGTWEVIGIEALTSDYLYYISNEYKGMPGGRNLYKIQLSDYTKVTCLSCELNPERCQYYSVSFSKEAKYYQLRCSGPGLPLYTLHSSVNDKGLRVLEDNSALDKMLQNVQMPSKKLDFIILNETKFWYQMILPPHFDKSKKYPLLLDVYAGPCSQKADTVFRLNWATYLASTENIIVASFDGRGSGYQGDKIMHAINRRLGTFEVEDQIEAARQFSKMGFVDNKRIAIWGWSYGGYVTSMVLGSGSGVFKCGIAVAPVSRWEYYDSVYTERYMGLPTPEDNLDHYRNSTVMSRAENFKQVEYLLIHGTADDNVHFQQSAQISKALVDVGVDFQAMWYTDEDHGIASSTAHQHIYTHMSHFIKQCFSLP
ASSAY_NOTES: Inhibition of DPP4 at 10 uM assessed as […] release after 1 hr relative to control
Criterion: inhibition meeting or surpassing 7%. Met: Criterion met. Not met: Criterion not met.

Examples with answers:
| ENTRY_SMILES | CAT |
| --- | --- |
| O=C1c2c(Cl)c(Cl)c(Cl)c(Cl)c2C(=O)N1c1ccccc1CCc1ccc(O)c(O)c1 | Criterion met |
| COc1ccc(CCc2ccccc2N2C(=O)c3ccccc3C2=O)cc1OC | Criterion not met |
| O=C1c2c(Cl)c(Cl)c(Cl)c(Cl)c2C(=O)N1c1cccc(CCc2ccccc2C(F)(F)F)c1 | Criterion met |
| O=C1c2ccccc2C(=O)N1c1cccc(CCc2ccccc2)c1 | Criterion not met |
| O=C1c2c(Cl)c(Cl)c(Cl)c(Cl)c2C(=O)N1c1cccc(CCc2ccccc2)c1 | Criterion met |
| O=C1c2c(Cl)c(Cl)c(Cl)c(Cl)c2C(=O)N1c1cccc(CCc2c(F)c(F)c(F)c(F)c2F)c1 | Criterion met |

Please check the record COc1ccc(CCc2ccc(N3C(=O)c4ccccc4C3=O)cc2)cc1OC and state if its inhibition is at or above 7%.
Criterion not met

Please check the record COc1ccc(CCc2cccc(N3C(=O)c4ccccc4C3=O)c2)cc1OC and state if its inhibition is at or above 7%.
Criterion not met
